assay: Plasma concentration versus time of Compound I and metabolite Compound III in patients dosed QD or BID with Form B of Compound II plus fulvestrant; assay type: in vivo, human; conditions: human, plasma, oral, 300 mg, 300 mg QD of Form B, Day 1, 12.0 h, Mean; read-out: Compound I Concentration
measurement_label: concentration at 12 h (ng/mL)
Respond numerically; units are ng/mL and should not be typed.

Tell me concentration at 12 h reported for CC(C)N1CCN(c2ccc(Nc3ncc4cc5n(c4n3)C3(CCCCC3)CNC5=O)nc2)CC1
15.5
